Target: T1, RBFOX1 RRM RbFoxmut (Fox-RRM*) (Homo sapiens, UniProt Q9NWB1 109-208, R118D;E147R;N151S;E152T)
T1 sequence: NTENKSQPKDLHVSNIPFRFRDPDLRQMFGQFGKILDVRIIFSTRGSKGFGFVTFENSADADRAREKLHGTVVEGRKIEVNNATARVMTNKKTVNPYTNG
Experiment: EMSA; HiTS-Eq, 1 nM pool, 10 min; buffer printed only for the single-RNA assays: 10 mM Tris pH 7.5, 150 mM NaCl, 3.4 mM EDTA, 0.001% NP-40, 30 C
Conditions: tags: His6 N-terminal (pET28a); label: 5' 32P
Whole data set: some 16,000 sequences, median “ka relative to ugcaugu” near 0.096, cut for the highest 2% near 0.35. The sample as a whole holds a higher share of the highest values than the screen did.
Parameter: binding signal. Scope: all listed entries.
QUANTITY: binding signal

BINDER	READOUT VALUE
AUGGAUG (DNA:RNA) RNA: GGGAGACCGGAAUUCAGAUUGUCCAUGGAUGUUAAAUCCCGUCGUAGCCACCA DNA 1: CAATCTGAATTCCGGTCTCCC DNA 2: TGGTGGCTACGACGGGATT	0.64 KA relative to UGCAUGU
ACCAUGU (DNA:RNA) RNA: GGGAGACCGGAAUUCAGAUUGUCCACCAUGUUUAAAUCCCGUCGUAGCCACCA DNA 1: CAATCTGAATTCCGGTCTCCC DNA 2: TGGTGGCTACGACGGGATT	0.102 KA relative to UGCAUGU
AUGGAGA (DNA:RNA) RNA: GGGAGACCGGAAUUCAGAUUGUCCAUGGAGAUUAAAUCCCGUCGUAGCCACCA DNA 1: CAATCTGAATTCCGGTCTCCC DNA 2: TGGTGGCTACGACGGGATT	0.139 KA relative to UGCAUGU
AUGGAUC (DNA:RNA) RNA: GGGAGACCGGAAUUCAGAUUGUCCAUGGAUCUUAAAUCCCGUCGUAGCCACCA DNA 1: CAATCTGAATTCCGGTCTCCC DNA 2: TGGTGGCTACGACGGGATT	0.298 KA relative to UGCAUGU
AUGUUGU (DNA:RNA) RNA: GGGAGACCGGAAUUCAGAUUGUCCAUGUUGUUUAAAUCCCGUCGUAGCCACCA DNA 1: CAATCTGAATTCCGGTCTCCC DNA 2: TGGTGGCTACGACGGGATT	0.245 KA relative to UGCAUGU
GUCCAUG (DNA:RNA) RNA: GGGAGACCGGAAUUCAGAUUGUCCGUCCAUGUUAAAUCCCGUCGUAGCCACCA DNA 1: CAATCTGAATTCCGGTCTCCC DNA 2: TGGTGGCTACGACGGGATT	0.151 KA relative to UGCAUGU
CGCCCUU (DNA:RNA) RNA: GGGAGACCGGAAUUCAGAUUGUCCCGCCCUUUUAAAUCCCGUCGUAGCCACCA DNA 1: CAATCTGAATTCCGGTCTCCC DNA 2: TGGTGGCTACGACGGGATT	0.0724 KA relative to UGCAUGU
CCAUGUA (DNA:RNA) RNA: GGGAGACCGGAAUUCAGAUUGUCCCCAUGUAUUAAAUCCCGUCGUAGCCACCA DNA 1: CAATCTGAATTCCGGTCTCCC DNA 2: TGGTGGCTACGACGGGATT	0.2 KA relative to UGCAUGU
AUGUCCG (DNA:RNA) RNA: GGGAGACCGGAAUUCAGAUUGUCCAUGUCCGUUAAAUCCCGUCGUAGCCACCA DNA 1: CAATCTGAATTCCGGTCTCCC DNA 2: TGGTGGCTACGACGGGATT	0.14 KA relative to UGCAUGU
